Listing of recorded pIC50 by entry.
- assayedSystem: Human immunodeficiency virus type 1 reverse transcriptase (Human immunodeficiency virus 1, UniProt Q72547, L100I)
pIC50: −log10 of the molar value.
parameterMeasured: pIC50

compound=Cc1cc(C)cc(S(=O)(=O)c2c(C(=O)NCCn3c([N+](=O)[O-])cnc3C)[nH]c3ccc(Cl)cc23)c1 quantitativeresult=6.80
compound=Cc1cc(C)cc(S(=O)(=O)c2c(C(=O)N[C@H](C)c3ccncc3)[nH]c3ccc(Cl)cc23)c1 quantitativeresult=8.52
compound=Cc1cc(C)cc(S(=O)(=O)c2c(C(=O)N[C@@H](C)c3ccncc3)[nH]c3ccc(Cl)cc23)c1 quantitativeresult=7.70
compound="Cc1cc(C)cc(S(=O)(=O)c2c(C(=O)NC(C)c3cccnc3)[nH]c3ccc(Cl)cc23)c1 (racemic)" quantitativeresult=7.70
